molecular target: wild-type EGFR expressed on cells (human), P00533; test: flow cytometry, F98-EGFRwt cells; settings: remark: other sources report otherwise
Parameter MFI: see the listing below.
I only need the number, thanks.

Previously resolved entries follow.
32A10 (antibody, V domains shown) VH: QVTLKESGPVLVKPTETLTLTCTVSGFSLSNARMGVSWIRQPPGKALEWLAHIFSTDEKSIRRSLRSRLTLSKDTSKSQVVLTMTNMDPVDTATYFCARDSSNYEGYFDYWGQGTLVTVSS VL: EVVMTQSPATLSVSPGERVTLSCRASQSVSSNFAWYQQRPGQAPRLLLYGATTRATGLPGRFSGSGSGTENILTISSLQSEDFAIYFCQQYKDWPFTFGPGSKVDIK ... 185
21E11 (antibody, V domains shown) VH: QVTLKESGPVLVKPTETLTLTCTVSGFSLSNVRMGVSWIRQPPGKALEWFAHIFSSDEKSIRRSLRSRLTLSKDTSKSQVVLTMTNMDPVDTATYYCARDSSNYEGYFDFWGQGTLVTVSSN VL: DMVVTQSPATLSVSPGERATLSCRASQSVGSDLAWYQQPPGQSPRLLIYGASTRATGVPARFSGSGSGTDFTLTITSLESEDFAVYYCQQYNDWPFTFGPGTKVDIK ... 184
29D5 (antibody, V domains shown) VH: QVTLKESGPVLVKPTETLTLTCTVSGFSLSNPRMGVSWLRQPPGKALEWFAHIFSTDEKSYSPSLRGRLTVSKDTSKSQVVLTLTNMDPVDTATYYCARDSSNYEGYFDYWGQGTLVTVSS VL: KIVMTQSPATLSVSPGERATLSCRANQIVSSNLAWYQQKPGQAPRLLVFGTSTRATGIPIRFSGSGSGTEFTLTVSSLQSEDFAVYVCQQYNDWPFTFGPGTKVDIK ... 185
34E7 (antibody, V domains shown) VH: EVNLVESGGGLVKPGGSLRLSCEASGFTFSYAWMSWVRQAPGKGLEWVGRIKSINDGGATDYASPVRNRFTISRDDSRNMLYLEMHSLKTEDTAVYYCTTIPGNDAFDMWGQGTLVTVSS VL: DIVLTQSPLSLSVTPGEPASISCRSTQSLLYSNGKNYLDWFLHKPGQSPQLLIFLGSIRASGVPDRFSGSGSGIDFILKISRVEAEDVGVYYCMQAQQTPITFGQGTRLEIK ... 371
11B11 (antibody, V domains shown) VH: QVTLKESGPVLVKPTETLTLTCTVSGFSLSNAKMGVSWIRQPPGKALEWLAHIFSTDEKSIRRSLRSRLTMSKDTSKSQVVLTMTNMDPVDTATYYCVRDSSNYEGYFDYWGQGTLVTVSS VL: EVLMTQSPATLSVSPGERATLSCRASQSVSTNFAWYQQRPGQAPRLLLFGASTRATGIPGRFSGSGSGTENILTISSLQSEDFAIYFCQQYKDWPFTFGPGSKVEIK ... 187

Query string: Identify the reported MFI for the following entry. 12B2 (antibody, V domains shown) VH: QVTLKESGPVLVKPTETLTLTCTVSGFSLSNPRMGVSWIRQPPGKALEWLGHIFSSDEKSYRLSLRSRLSISKDTSKSQVVLTMTNMDPVDTATYYCVRDSSNYGGYFDYWGQGTLVTVSS VL: EVVMTQSPATLSVSPGERATLSCRASQSVINNLAWYQQKPGQAPRLLIYGTSTRATDIPARFSGSGSGTEFTLTISSLQSEDFAVYYCQDYNNWPFTFGPGTKVDIK
Result string: 185

Query string: Identify the reported MFI for the following entry. 19A9 (antibody, V domains shown) VH: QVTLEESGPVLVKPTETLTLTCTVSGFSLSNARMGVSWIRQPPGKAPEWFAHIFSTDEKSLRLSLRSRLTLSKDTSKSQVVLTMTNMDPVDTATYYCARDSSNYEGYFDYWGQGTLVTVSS VL: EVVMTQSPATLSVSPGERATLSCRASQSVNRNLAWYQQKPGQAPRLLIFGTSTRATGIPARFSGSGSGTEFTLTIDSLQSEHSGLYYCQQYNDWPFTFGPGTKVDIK
Result string: 168
